Protocol: soluble on expression in E. coli; label from the status in PepcDB or PDB records
Experimental readout: soluble on expression in E. coli

- MSKFFINPEVLEKYSQKLAEHKSSVNHVRDLVAQADVSDESWGIVGLFVKQSYTEMLGDFKDLLKDMSDGLDSASDKMMSATRAYREIEEENRRILVEITRRINAAKIKNITS: not soluble
- YGKQRKASVIGAINTVSMNELKMPVAKLSSGLAGQLAGIVVMQRSGEPGAGADFWIRGINTFGAGNKPLVLVDGVERSMDLVDVEDIASFSILKDATATALYGVRGANGIVLITTKRGTES: not soluble

* * *

Protocol: soluble on expression in E. coli; label from the status in PepcDB or PDB records
Experimental readout: soluble on expression in E. coli

Solved entries (count: 8):
* MSLGRGLYFNQAQKHFQQLLLMEERATIARELHDSLAQVLSYLRIQLTLLKRSIPEDNATAQSIMADFSQALNDAYRQLRELLTTFRLTLQQADLPSALREMLDTLQNQTSAKLTLDCRLPTLALDAQMQVHLLQIIREAVLNAMKHANASEIAVSCVTAPDGNHTVYIRDNGIGIGEPKEPEGHYGLNIMRERAERLGGTLTFSQPSGGGTLVSISFRSAEGEESQLMEGHHHHHH | soluble
* MGSDKIHHHHHHMKKVIPALALVLLTTGLVGCDRVEPGNVGIKVNKLGDDKGVGEVVGVGRYWTGWNTEVYIFPTFKQMKTYDEPFSFQMSDGTTIGYHIGVAYKVDPSKVTTVFQTYRKGVDDITDTDLRQKIADALNRLASKMTTDKFIDGGKSELLDAALKDIQEEMTPIGIQVMSLSYVGKPEYPPTVIDSINAKVTANQKTLQCEQEVKQREAEANMLRAEAAGQADAIRTKAQAEADAIRLRGEALRQNPNVMELEAINKWNGTLPQYMTSGANTPFIQVK | not soluble
* MGSDKIHHHHHHMVKTNVTIMRGGTSKGVFFHESAMPNNKNEWEPFLLDVMGSPDKRQIDGLGGGNSLTSKVAIIKKAYTSDIDVHYTFGQVSISEEKVDFKGNCGNISAAVGPFAIEEGLVKAKEPMTAVRILNTNTNKMIIAEVEVEDGQVKYDGDVTISGVPGSGSPIYLNFHDAAGSVTGHLLPTGNSSEFLDTSQGQIEVSIIDYANPLVFVEASSIGLDGTELAEEFTDLQLAQFEELRSIAAEKCGFASRFSATKLSPAVPKLAIVAKPEKYKDSTGAWHSSVEMDLHIRMMSMQKSHQALAVTGAICTTRALSVEGAIPARIAKNHSTKVRLAHSSGIIETMVEPTGIKIVRTARRIMDGTVYTHGDYQMM | not soluble
* GVALGATRVIYPEGQKQVQLAVTNNDDKSSYLIQSWIENAEGKKDARFVITPPLFSMQGKKENTLRIIDATNGQMPEDRESLFWVNVKAIPAMDKAKTGENYLQFAIVSRIKLLYRPQGLVIPPEQAPGKLEFTRENGGLTLFNPTPYYLTVTDLKAGNKSLENTMVPPQGKVTVNIPGGYTGGDITYKTINDYGALTEQVRGVVK | soluble
* MSLPHVILTVLSTRDATGYDITKEFSASIGYFWKASHQQVYRELNKMGEQGLVTCVLEPQEGKPDRKVYSITQAGRSALGEWFDQPTAHPTVRDEFSAKLMACSVQSAEPYRLQLAELVEESRKLVAHYQEIEAAYYANPAVLDKQQRLERLTLRRNLLVRQAWIQWADEVLAELNAMA | soluble
* MYVCHFENCGKAFKKHNQLKVHQFSHTQQLPYECPHEGCDKRFSLPSRLKRHEKVHAGYPCKKDDSCSFVGKTWTLYLKHVAECHQD | soluble
* YSSAYKEFIKKSMKYRTEEDTFTDANGLAGCRYWSPKNYEKIARMMAQPKYKPAFAYLFFFRSYVNDQQITSCVFQVQRDGMPESILVQPVLRDESSVTLE | not soluble
* MIPKNIHLIFLRKDEPFPELFEKCKQEIQVNHPDWNIRLYNKDDAQDILNQDLPEYIEAYNAFYHNVQKADFLRLALVYLYGGFYMDLDMLSLKPLDELRKYNLVLGEEKIVCQAEQEALNLRYRLRIANYMFGGIPKHPFLHRIMDEMAERATIILKSQQEILDITGPGLLTDTYWDNYGMYTDITLLRNTDKRCRQPYHNEISCHFGDYAAHLHAGTWRTGILEHHHHHH | soluble

Prompt: Please give measured soluble on expression in E. coli of the following entry: `MSAALEKPQIIAHIQKSLNYTVFESKWIPCSAKFVCMGNFARGTGVMQIYEIQHGELQLVREIEKSKPIKCGTFGATSLQQRHLATGDFDGNLNVWNLEVPDSPVYSVKAHKEIINAIDGVGGLGIGDGAPEIVTGSRDGTVKVWDSRQKDTPVVNMEPTEGETKRDCWTVAFGHAFNDQDRCVCAGYDNGDIKLFDLRNMSLRWEKNIRNGVCSVEFDRKDINMNKLVATSLEGKFHVFDMRTQHPSKGFASVSEKAHKSTIWQVRHLPQNRDVFMTAGGAGNLHLWKYEYPAQRSKKGADDVEMGVAGSVNLLQNVTLSTQPISSLDWSPDKQGLCVCSSFDQSVRVLIVTKLNTV`
Response: soluble

Prompt: Output soluble on expression in E. coli of `MGSDKIHHHHHHMVVLMTKPGTSDFVWNGIPLSMELNLWNIKEYSGSVAMKFDGEKITFDADIQNLSPKEPERYVLGYPEFYYGYKPWENHTAEGSKLPVPVSSMKSFSVEVSFDIHHEPSLPLNFAMETWLTREKYQTEASIGDVEIMVWFYFNNLTPGGEKIEEFTIPFVLNGESVEGTWELWLAEWGWDYLAFRLKDPVKKGRVKFDVRHFLDAAGKALSSSARVKDFEDLYFTVWEIGTEFGSPETKSAQFGWKFENFSIDLEVRE`
Response: not soluble

Prompt: Output measured soluble on expression in E. coli for this item: `MGSDKIHHHHHHMDILQTANERMEQLAALMNKDIKQKVSADQKVKVGVDLGTSSIVFVVLDEHDVPLFGAFEFADAVRDGLVVNYRESVEVVTRLKERAEKCLGITLTHASGAIPPGTVGNNKKVVANVIESAGMEALYTIDEPTAAAAVLGLQDGAVVDVGGGTTGISVFENGEVIYTADEPTGGTHMTLVLAGYYGVPVEKAEQNKREQKDSSEHFSVMRPVVEKMAEITRVHLEKSPSEPLYIVGGASAYSQFKDTFESYLKTPVFQPNYPQYVTPLGIAMSSGSENL`
Response: not soluble

Prompt: Annotate the sequence `MIISDVLYGEFEVDQVVEELISSKSMQRLKGIHQNGASYLMNEKWNVTRFDHSVGVMLLVKKLGGSVKEQIASLLHDVSHTAFSHVIDYVFDNEDESYHEEIFSSVVKNSEIPAILAKHGYNYEDILLDDSKWTLLERSAPELCADRVDYTLRDMYTYGYISLEEVHRFLEDIIAVEGKMVVQSVEMAEWFTETYYKEVIDFFMKPMNIYGNDMLAKTLKLSLHKKVIHADDFLLEDEELISKLQQCNDPEVEALLSKVHPNVKVKEDRNDYDLHQKNKVRLIDPPLLREGKIVQSSVVSENIRQISDIAYEKAVRGMYVKVISN` with its measured soluble on expression in E. coli.
Response: not soluble
